assay_info: Metabolic stability in rat liver microsomes with or without verapamil
Format: in vitro ADME
recorded_conditions: rat, liver microsomes, pH 7.4, with verapamil 50 µM; RLMs 1 mg/mL, RA 2 µM, pre-treatment of verapamil 50 µM
reported_metric: microsomal CLint at 2 µM (µL/min/mg)
Entry rule: numbers only, all in µL/min/mg.

IN: Given the entry "C[C@@H]1CC[C@]2(C(=O)O)CC[C@]3(C)C(=CC[C@@H]4[C@@]5(C)CC[C@H](O)[C@@](C)(CO)[C@@H]5CC[C@]43C)[C@@H]2[C@]1(C)O" , report its measured microsomal CLint at 2 µM.
OUT: 12

----------
assay_info: In vivo pharmacokinetic study of oral rotundic acid with or without verapamil pre-treatment
Design: species or system Sprague–Dawley rats
recorded_conditions: male, Sprague-Dawley, rat, plasma, po, 10 mg/kg, rats, RA 10 mg/kg oral, without verapamil; read-out: time to peak plasma concentration (converted)
reported_metric: Tmax

IN: Given the entry "C[C@@H]1CC[C@]2(C(=O)O)CC[C@]3(C)C(=CC[C@@H]4[C@@]5(C)CC[C@H](O)[C@@](C)(CO)[C@@H]5CC[C@]43C)[C@@H]2[C@]1(C)O" , report its measured Tmax.
OUT: ~15 min

----------
assay_info: Bidirectional transport across Caco-2 cell monolayer
Assay type: in vitro ADME, human
recorded_conditions: human, pH 7.4; Caco-2, 25 µM RA, 10–60 min, without verapamil; read-out: Papp (BL→AP) relative to Papp (AP→BL)
reported_metric: efflux ratio at 25 µM
The reply should be a number, written without any unit.

IN: Given the entry "C[C@@H]1CC[C@]2(C(=O)O)CC[C@]3(C)C(=CC[C@@H]4[C@@]5(C)CC[C@H](O)[C@@](C)(CO)[C@@H]5CC[C@]43C)[C@@H]2[C@]1(C)O" , report its measured efflux ratio at 25 µM.
OUT: 2

----------
Tested on: P-gp
assay_info: Bidirectional transport across Caco-2 cell monolayer
Assay type: in vitro ADME, human
recorded_conditions: human, pH 7.4, with verapamil 50 µM; Caco-2, 25 µM RA, 10 min, + 50 µM verapamil
reported_metric: Papp A→B at 10 min, 25 µM (×10⁻⁶ cm/s)
Entry rule: numbers only, all in ×10⁻⁶ cm/s.

IN: // fetch P-gp Papp A→B at 10 min, 25 µM for C[C@@H]1CC[C@]2(C(=O)O)CC[C@]3(C)C(=CC[C@@H]4[C@@]5(C)CC[C@H](O)[C@@](C)(CO)[C@@H]5CC[C@]43C)[C@@H]2[C@]1(C)O [RA, Rotundic acid]
OUT: 1.07

----------
assay_info: Bidirectional transport across Caco-2 cell monolayer
Format: in vitro ADME, human
recorded_conditions: human, pH 7.4; Caco-2, 25 µM RA, 60 min, without verapamil
reported_metric: Papp B→A at 60 min, 25 µM (×10⁻⁶ cm/s)
Entry rule: numbers only, all in ×10⁻⁶ cm/s.

IN: Given the entry "C[C@@H]1CC[C@]2(C(=O)O)CC[C@]3(C)C(=CC[C@@H]4[C@@]5(C)CC[C@H](O)[C@@](C)(CO)[C@@H]5CC[C@]43C)[C@@H]2[C@]1(C)O" , report its measured Papp B→A at 60 min, 25 µM.
OUT: 6.56

----------
assay_info: In vivo pharmacokinetic study of oral rotundic acid with or without verapamil pre-treatment
Set-up: species or system Sprague–Dawley rats
recorded_conditions: male, Sprague-Dawley, rat, plasma, po, 10 mg/kg, rats, RA 10 mg/kg oral, pre-treatment of verapamil 25 mg/kg
reported_metric: Cmax

IN: Given the entry "C[C@@H]1CC[C@]2(C(=O)O)CC[C@]3(C)C(=CC[C@@H]4[C@@]5(C)CC[C@H](O)[C@@](C)(CO)[C@@H]5CC[C@]43C)[C@@H]2[C@]1(C)O" , report its measured Cmax.
OUT: 117 ng/mL

----------
assay_info: Bidirectional transport across Caco-2 cell monolayer
Assay type: in vitro ADME, human
recorded_conditions: human, pH 7.4; Caco-2, 25 µM RA, 40 min, without verapamil; read-out: RE (efflux ratio)
reported_metric: efflux ratio at 40 min, 25 µM
The reply should be a number, written without any unit.

IN: Given the entry "C[C@@H]1CC[C@]2(C(=O)O)CC[C@]3(C)C(=CC[C@@H]4[C@@]5(C)CC[C@H](O)[C@@](C)(CO)[C@@H]5CC[C@]43C)[C@@H]2[C@]1(C)O" , report its measured efflux ratio at 40 min, 25 µM.
OUT: 2.55

----------
assay_info: In vivo pharmacokinetic study of oral rotundic acid with or without verapamil pre-treatment
Parameters: species or system Sprague–Dawley rats
recorded_conditions: male, Sprague-Dawley, rat, plasma, po, 10 mg/kg, rats, RA 10 mg/kg oral, control (vehicle); read-out: AUC0–24
reported_metric: AUC(0-t) (ng·h/mL)
Entry rule: numbers only, all in ng·h/mL.

IN: Given the entry C[C@@H]1CC[C@]2(C(=O)O)CC[C@]3(C)C(=CC[C@@H]4[C@@]5(C)CC[C@H](O)[C@@](C)(CO)[C@@H]5CC[C@]43C)[C@@H]2[C@]1(C)O [RA, Rotundic acid] , report its measured AUC(0-t).
OUT: 405

----------
assay_info: Bidirectional transport across MDCKII-Mock cell monolayers
Format: in vitro ADME, canine
recorded_conditions: dog, MDCK, pH 7.4, with verapamil 50 µM; MDCKII-Mock, 20 min, + 50 µM verapamil
reported_metric: Papp A→B at 20 min (×10⁻⁶ cm/s)
Entry rule: numbers only, all in ×10⁻⁶ cm/s.

- smiles_data: "COC(=O)c1ccccc1-c1c2ccc(=N)cc-2oc2cc(N)ccc12"
  Papp A→B at 20 min [×10⁻⁶ cm/s]: 0.409

Now consider the entry below.
IN: Given the entry "C[C@@H]1CC[C@]2(C(=O)O)CC[C@]3(C)C(=CC[C@@H]4[C@@]5(C)CC[C@H](O)[C@@](C)(CO)[C@@H]5CC[C@]43C)[C@@H]2[C@]1(C)O" , report its measured Papp A→B at 20 min.
OUT: 6.52

----------
assay_info: Bidirectional transport across MDCKII-Mock cell monolayers
Type: in vitro ADME, canine
recorded_conditions: dog, MDCK, pH 7.4, with verapamil 50 µM; MDCKII-Mock, 20 min, + 50 µM verapamil; read-out: RE (efflux ratio)
Each entry below carries its reported efflux ratio at 20 min.
The reply should be a number, written without any unit.

- smiles_data: "COC(=O)c1ccccc1-c1c2ccc(=N)cc-2oc2cc(N)ccc12"
  efflux ratio at 20 min: 1.32

Now consider the entry below.
IN: Given the entry "C[C@@H]1CC[C@]2(C(=O)O)CC[C@]3(C)C(=CC[C@@H]4[C@@]5(C)CC[C@H](O)[C@@](C)(CO)[C@@H]5CC[C@]43C)[C@@H]2[C@]1(C)O" , report its measured efflux ratio at 20 min.
OUT: 0.955

----------
assay_info: Bidirectional transport across MDCKII-Mock cell monolayers
Format: in vitro ADME, canine
recorded_conditions: dog, MDCK, pH 7.4; MDCKII-Mock, 20 min, without verapamil
reported_metric: Papp B→A at 20 min (×10⁻⁶ cm/s)
Entry rule: numbers only, all in ×10⁻⁶ cm/s.

- smiles_data: "COC(=O)c1ccccc1-c1c2ccc(=N)cc-2oc2cc(N)ccc12"
  reported_metric: "Papp B→A at 20 min"
  reported_value: 0.481

Now consider the entry below.
IN: Given the entry "C[C@@H]1CC[C@]2(C(=O)O)CC[C@]3(C)C(=CC[C@@H]4[C@@]5(C)CC[C@H](O)[C@@](C)(CO)[C@@H]5CC[C@]43C)[C@@H]2[C@]1(C)O" , report its measured Papp B→A at 20 min.
OUT: 6.72

----------
assay_info: Bidirectional transport across Caco-2 cell monolayer
Format: in vitro ADME, human
recorded_conditions: human, pH 7.4; Caco-2, 25 µM RA, 10 min, without verapamil; read-out: RE (efflux ratio)
reported_metric: efflux ratio at 10 min, 25 µM

IN: Given the entry "C[C@@H]1CC[C@]2(C(=O)O)CC[C@]3(C)C(=CC[C@@H]4[C@@]5(C)CC[C@H](O)[C@@](C)(CO)[C@@H]5CC[C@]43C)[C@@H]2[C@]1(C)O" , report its measured efflux ratio at 10 min, 25 µM.
OUT: 6.93

----------
assay_info: Bidirectional transport across MDCKII-Mock cell monolayers
Format: in vitro ADME, canine
recorded_conditions: dog, MDCK, pH 7.4; MDCKII-Mock, 20 min, without verapamil; read-out: RE (efflux ratio)
Each entry below carries its reported efflux ratio at 20 min.
The reply should be a number, written without any unit.

- smiles_data: "C[C@@H]1CC[C@]2(C(=O)O)CC[C@]3(C)C(=CC[C@@H]4[C@@]5(C)CC[C@H](O)[C@@](C)(CO)[C@@H]5CC[C@]43C)[C@@H]2[C@]1(C)O"
  efflux ratio at 20 min: 1.11

Now consider the entry below.
IN: Given the entry "COC(=O)c1ccccc1-c1c2ccc(=N)cc-2oc2cc(N)ccc12" , report its measured efflux ratio at 20 min.
OUT: 1.27

----------
System: P-gp
assay_info: Bidirectional transport across Caco-2 cell monolayer
Format: in vitro ADME, human
recorded_conditions: human, pH 7.4, with verapamil 50 µM; Caco-2, 25 µM RA, 60 min, + 50 µM verapamil; read-out: RE (efflux ratio)
Method: The qualified monolayers were used for transport studies. […] Each experiment was carried out in triplicate.
reported_metric: efflux ratio at 60 min, 25 µM
The reply should be a number, written without any unit.

IN: Given the entry C[C@@H]1CC[C@]2(C(=O)O)CC[C@]3(C)C(=CC[C@@H]4[C@@]5(C)CC[C@H](O)[C@@](C)(CO)[C@@H]5CC[C@]43C)[C@@H]2[C@]1(C)O [RA, Rotundic acid] , report its measured efflux ratio at 60 min, 25 µM.
OUT: 1.12
